- Test system: NF-κ B activation
- METHOD_DESCRIPTION: Inhibitory activity of NF-κB activation, luciferase reporter assay under TNF-α stimulation in HepG2
- Type: cell-based, human
- CONDITION_LABEL: Drug concentration at 1 μg/mL; HepG2, TNF-α 40 ng/ml, 4 hours
ENDPOINT_LABEL: Inhibitory rate against NF-κB activation (%)
Report the value in % with no unit label.

COc1cc(NC(=O)c2cc(Br)ccc2O)cc(C(F)(F)F)c1 84.5
O=C(Nc1cc(C(F)(F)F)cc(C(F)(F)F)c1)c1cc(C(F)(F)C(F)(F)F)ccc1O 93.3

Entry Cc1ccc(C(=O)c2ccccc2)c(NC(=O)c2cc(Cl)ccc2O)c1 , tested on NF-κ B activation, has a reported Inhibitory rate against NF-κB activation (%) of 28.6

====

compounds and their reported Inhibitory rate against NF-κB activation (%)
- System: NF-κ B activation
- METHOD_DESCRIPTION: Inhibitory activity of NF-κB activation, luciferase reporter assay under TNF-α stimulation in HepG2
- Assay type: cell-based, human
- CONDITION_LABEL: Drug concentration at 1 μg/mL; HepG2, TNF-α 40 ng/ml, 4 hours
- Procedure: Measurement of Inhibitory Activity of NF-κB activation Using a transfection reagent (Effectene; QIAGEN), the human hepatoma cell strain HepG2 was transfected with a plasmid (pNF κ B-Luc Reporter Plasmid; […]) integrated with an oligonucleotide having five tandem copies of NF-κ B binding sequences([…]) on a upstream region of firefly luciferase gene(Luc) according to the QIAGEN's protocol, and the cells were incubated for 6 to 24 hours. […]
Express your answer in %, writing the number without its unit.

Reference set (5 entries):
COc1ccc(O)c(C(=O)Nc2cc(C(F)(F)F)cc(C(F)(F)F)c2)c1 30.7
CCOC(=O)c1sc(NC(=O)c2cc(-c3ccccc3)ccc2O)nc1-c1ccccc1 34.6
O=C(Nc1cc([N+](=O)[O-])ccc1Cl)c1cc(Cl)ccc1O 93.8
O=C(Nc1cc(F)cc(F)c1)c1cc(Cl)ccc1O 90.7
CC(C)(C)CC(C)(C)c1ccc(O)c(C(=O)Nc2cc(C(F)(F)F)cc(C(F)(F)F)c2)c1 94.0

O=C(Nc1cc(Cl)cc(Cl)c1)c1cc(Br)ccc1O has a reported Inhibitory rate against NF-κB activation (%) of 77.1

Given item O=C(Nc1cc(C(F)(F)F)cc(C(F)(F)F)c1)c1cc(-c2ccsc2)ccc1O , the value recorded as its Inhibitory rate against NF-κB activation (%) is 81.7

Entry Cc1ccc(C(C)C)cc1NC(=O)c1cc(Cl)ccc1O , Inhibitory rate against NF-κB activation (%) reported as 85.8

Entry under test: O=C(Nc1cc(-c2ccccc2)[nH]n1)c1cc(Br)ccc1O . Its Inhibitory rate against NF-κB activation (%) was 26.6

Sure, the documented Inhibitory rate against NF-κB activation (%) for CC(C)(C)c1cc(NC(=O)c2cc(Br)ccc2O)cc(C(C)(C)C)c1 is 70.9

The reported value for CC(=O)Oc1ccc(Cl)cc1C(=O)Nc1cc(C(C)(C)C)cc(C(C)(C)C)c1 in terms of Inhibitory rate against NF-κB activation (%) is 90.8

The measured Inhibitory rate against NF-κB activation (%) associated with O=C(Nc1cc(C(F)(F)F)cc(C(F)(F)F)c1)c1ccccc1O reads 93.3

====

- Test system: NF-κ B activation
- METHOD_DESCRIPTION: Inhibitory activity of NF-κB activation, luciferase reporter assay under TNF-α stimulation in HepG2
- Assay type: cell-based, human
- CONDITION_LABEL: Drug concentration at 10 μg/mL; HepG2, TNF-α 40 ng/ml, 4 hours
ENDPOINT_LABEL: Inhibitory rate against NF-κB activation (%)
Write the value in % as a bare number.

MOLECULE	UNIT_NAME	NUMERIC_VALUE
O=C(Nc1cc(C(F)(F)F)cc(C(F)(F)F)c1)c1cc(-c2ccsc2)ccc1O [compound 29]	%	92.9
O=C(Nc1cc(C(F)(F)F)ccc1Cl)c1cc(Br)ccc1O [compound 90]	%	94.1
COc1ccc(C(=O)Nc2ccccc2)cc1NC(=O)c1cc(Cl)ccc1O [compound 157]	%	98.8
O=C(Nc1cc(C(F)(F)F)cc(C(F)(F)F)c1)c1nc2ccccc2nc1O [compound 80]	%	73.0
COc1cc(NC(=O)c2cc(Cl)ccc2O)cc(C(F)(F)F)c1 [compound 105]	%	97.5
CSc1ccc(C(F)(F)F)cc1NC(=O)c1cc(Cl)ccc1O [compound 96]	%	99.1
O=C(Nc1cnc2ccccc2c1)c1cc(Cl)ccc1O [compound 242]	%	85.7
O=C(Nc1cc(C(F)(F)F)ccc1Cl)c1cc(Cl)cnc1O [compound 119]	%	86.9

Recorded Inhibitory rate against NF-κB activation (%) for Cc1ccc(O)c(C(=O)Nc2cc(C(F)(F)F)ccc2Cl)c1 [compound 100] on NF-κ B activation was 95.1

Value (Inhibitory rate against NF-κB activation (%), NF-κ B activation) for record CCN(CC)S(=O)(=O)c1ccc(OC)c(NC(=O)c2cc(Cl)ccc2O)c1 [compound 155] = 90.2

Known value: NF-κ B activation Inhibitory rate against NF-κB activation (%) of the molecule CNC(=O)c1sc(NC(=O)c2cc(Br)ccc2O)nc1-c1ccccc1 [compound 220] equals 58.6

Item COc1ccc(OC)c(NC(=O)c2cc(Br)ccc2O)c1 [compound 142] was tested on NF-κ B activation; the reported Inhibitory rate against NF-κB activation (%) is 95.7

====

- Tested on: NF-κ B activation
- METHOD_DESCRIPTION: Inhibitory activity of NF-κB activation, luciferase reporter assay under TNF-α stimulation in HepG2
- Type: cell-based, human
- CONDITION_LABEL: Drug concentration at 10 μg/mL; HepG2, TNF-α 40 ng/ml, 4 hours
- Description: Measurement of Inhibitory Activity of NF-κB activation Using a transfection reagent (Effectene; QIAGEN), the human hepatoma cell strain HepG2 was transfected with a plasmid (pNF κ B-Luc Reporter Plasmid; […]) integrated with an oligonucleotide having five tandem copies of NF-κ B binding sequences([…]) on a upstream region of firefly luciferase gene(Luc) according to the QIAGEN's protocol, and the cells were incubated for 6 to 24 hours. […]
ENDPOINT_LABEL: Inhibitory rate against NF-κB activation (%)
Only the number, expressed in %, is required.

Sample records with Inhibitory rate against NF-κB activation (%):
Cc1ccc(C(=O)C(C)(C)C)cc1NC(=O)c1cc(Cl)ccc1O 96.4
Cc1ccc(Oc2ccc(C(F)(F)F)cc2NC(=O)c2cc(Cl)ccc2O)cc1 92.6
O=C(Nc1nc(-c2ccccc2)c(C(=O)NCCc2ccccc2)s1)c1cc(Br)ccc1O 60.4
N#CC(=Cc1ccc(O)c(C(=O)Nc2cc(C(F)(F)F)cc(C(F)(F)F)c2)c1)C(=O)O 98.5
O=C(Nc1cc(C(F)(F)F)ccc1Oc1ccc(Cl)cc1)c1cc(Cl)ccc1O 99.5

Reported Inhibitory rate against NF-κB activation (%) ( CC(C)(C)c1nc(NC(=O)c2cc(Br)ccc2O)sc1C#N ) = 93.8

Summary for this compound, CC(C)(C)c1cc(NC(=O)c2cc(Br)ccc2O)cc(C(C)(C)C)c1 : Inhibitory rate against NF-κB activation (%) is 82.0

Measured Inhibitory rate against NF-κB activation (%) of O=C(Nc1cc(C(F)(F)F)cc(C(F)(F)F)c1)c1cc(C(F)(F)F)ccc1O : 99.6

Entry under test: O=C(Nc1cc(C(F)(F)F)ccc1N1CCC(C(F)(F)F)CC1)c1cc(Cl)ccc1O . Its Inhibitory rate against NF-κB activation (%) was 95.7

Lab note: O=C(Nc1cc(C(F)(F)F)cc(C(F)(F)F)c1)c1cc2ccccc2cc1O gave Inhibitory rate against NF-κB activation (%) of 95.0

For reference, reported Inhibitory rate against NF-κB activation (%) for O=C(Nc1cc(C(F)(F)F)cc(C(F)(F)F)c1)c1cccc(Cl)c1O stands at 94.1

What the record says about O=C(Nc1cc(F)cc(C(F)(F)F)c1)c1cc(Cl)ccc1O : Inhibitory rate against NF-κB activation (%) is 98.9

====

# reported Inhibitory rate against NF-κB activation (%); entries follow
- System: NF-κ B activation
- METHOD_DESCRIPTION: Inhibitory activity of NF-κB activation, luciferase reporter assay under TNF-α stimulation in HepG2
- Assay type: cell-based, human
- CONDITION_LABEL: Drug concentration at 10 μg/mL; HepG2, TNF-α 40 ng/ml, 4 hours
Quick note: give the figure in %, leave out the unit.

Cc1ccc(C)c(NC(=O)c2cc(Cl)ccc2O)c1 97.1
CCOC(=O)c1sc(NC(=O)c2cc(-c3ccc(F)cc3F)ccc2O)nc1-c1ccccc1 90.3
Cc1ccc(O)c(C(=O)Nc2cc(C(F)(F)F)cc(C(F)(F)F)c2)c1 99.4
COc1ccc(C(C)(C)c2ccccc2)cc1NC(=O)c1cc(Cl)ccc1O 98.3

get_value(item= COC(=O)C(C#N)=Cc1ccc(O)c(C(=O)Nc2cc(C(F)(F)F)cc(C(F)(F)F)c2)c1 , readout=Inhibitory rate against NF-κB activation (%)) returns 99.1

// recorded Inhibitory rate against NF-κB activation (%) for CCCCc1ccc([N+](=O)[O-])cc1NC(=O)c1cc(Cl)ccc1O : 99.5

Inhibitory rate against NF-κB activation (%) reported for this compound O=C(Nc1cc([N+](=O)[O-])ccc1Cl)c1cc(Cl)ccc1O : 95.7

The compound listed as O=C(Nc1cc(Cl)cc(Cl)c1)c1cc(I)ccc1O shows Inhibitory rate against NF-κB activation (%) equal to 97.1

# compound CON=C(C)c1ccc(O)c(C(=O)Nc2cc(C(F)(F)F)cc(C(F)(F)F)c2)c1 ; its Inhibitory rate against NF-κB activation (%) = 98.3

Lab book: Inhibitory rate against NF-κB activation (%) of O=C(Nc1cc(C(F)(F)F)cc(C(F)(F)F)c1)c1c(O)c(Cl)cc(Cl)c1Cl noted as 97.2

Looking up CCCCCCOc1ccc(S(C)(=O)=O)cc1NC(=O)c1cc(Cl)ccc1O , I see its Inhibitory rate against NF-κB activation (%) listed as 99.4

Per the records, this compound ( O=C(Nc1cc(Cl)cc(Cl)c1)c1cc(F)ccc1O ) has Inhibitory rate against NF-κB activation (%) equal to 97.0

Value of Inhibitory rate against NF-κB activation (%) reported for the compound O=C(Nc1cc(C(F)(F)F)cc(C(F)(F)F)c1)c1cc(Br)c(O)cc1O is 86.5

response.value for N#Cc1ccc(Oc2ccc(C(F)(F)F)cc2NC(=O)c2cc(Cl)ccc2O)cc1 (field: Inhibitory rate against NF-κB activation (%)) = 96.3

Noted for O=C(Nc1nc(-c2ccccc2)c(-c2ccccc2)o1)c1cc(Br)ccc1O : its Inhibitory rate against NF-κB activation (%) reads 81.8

Please fill in: Inhibitory rate against NF-κB activation (%) reported for O=C(Nc1nnc(C(F)(F)F)s1)c1cc(Br)ccc1O = 90.3

Briefly, Inhibitory rate against NF-κB activation (%) measured for O=C(Nc1cc(C(F)(F)F)cc(C(F)(F)F)c1)c1cc(-c2ccccc2)ccc1O : 96.8

The compound listed as O=C(Nc1nc(C(F)(F)F)c(-c2ccccc2)s1)c1cc(Br)ccc1O shows Inhibitory rate against NF-κB activation (%) equal to 89.4
